Source of measurements: paper PMC3224971

- Tested target: γ-secretase (Homo sapiens, UniProt P49768)
- Test description: extended exo-cell γ-secretase assay in HeLa cells
- Assay type: cell-based
- Condition: HeLa cells incubated with GSI for 24 hours, washed, then Sb4 and CHAPSO; ECL detection
Observable: pIC50
Answers are plain numbers, as −log10 of the molar value.

response.value for CC(NC(=O)Cc1cc(F)cc(F)c1)C(=O)NC1N=C(c2ccccc2)c2ccccc2N(C)C1=O (stereo not shown) (field: pIC50) = 8.55
